- tgt: T1, His6-IRE1αLD (human, UniProt O75460 24-443)
- T1 sequence: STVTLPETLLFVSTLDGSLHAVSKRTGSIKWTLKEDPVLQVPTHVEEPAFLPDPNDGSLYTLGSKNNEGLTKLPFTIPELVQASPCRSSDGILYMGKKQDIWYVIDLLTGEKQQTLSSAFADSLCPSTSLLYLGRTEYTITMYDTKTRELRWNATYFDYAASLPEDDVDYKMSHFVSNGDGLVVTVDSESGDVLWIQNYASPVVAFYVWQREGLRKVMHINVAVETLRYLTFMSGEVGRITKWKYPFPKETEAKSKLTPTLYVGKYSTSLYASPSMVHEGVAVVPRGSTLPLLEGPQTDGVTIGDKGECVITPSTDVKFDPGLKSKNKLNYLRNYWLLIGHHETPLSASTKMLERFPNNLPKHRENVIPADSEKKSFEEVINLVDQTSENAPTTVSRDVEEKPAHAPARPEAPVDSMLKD
- experimental.protocol: […]
Where no end group is shown, it is not given here. The star is where a group is joined. 5FAM = O=C1OC2(c3ccc(O)cc3Oc3cc(O)ccc32)c2ccc(C(=O)*)cc21
// values below are reported Kd
Entry rule: numbers only, all in mM.

binder | output.unit | Kd
5FAM-YLAWYQQKP [human IgG light chain variable domain (VL) peptide, 5-FAM labelled] | mM | 219

Please look at the following binder next.
Value lookup for Kd; key = 5FAM-YWLLIGHHETPL [IRE1α_(Y358-L369) peptide, 5-FAM labelled, wild-type sequence]
0.24
